Reference source: PubChem BioAssay AID1259407

system: CCRIS mutagenicity, Ames/micronucleus/aberration tests; assay: CCRIS mutagenicity studies; conditions: Test System: AMES SALMONELLA TYPHIMURIUM; Strain/Indicator: TA102; Metabolic Activation: RAT LIVER S-9, AROCLOR 1254; Method: STANDARD PLATE
Calls of active or inactive are those of the source. No rule for the calls is given here.
Thanks in advance; please answer with one of these: yes (active), no (inactive)

{"columns": ["compound", "qualitative_label"],
 "data": [
  ["O=C1c2cccc(O)c2C(=O)c2c(O)cccc21", "yes"],
  ["COC1=CC(=O)c2c(ncc3c2[nH]c2ccncc23)C1=O", "yes"],
  ["Cc1cc(C)c(C)cc1C", "no"]
]}

--- query ---
**Query** Could you check what this test reported for COC1=CC(=O)c2c(nc(C)c3c2[nH]c2ccccc23)C1=O ?
**Result** no
